Molecular target: T1, human IL-11 (human, UniProt P20809 22-199)
T1 construct: Invigate, e.g. lot #C121021-19; biotinylated where coated in the ELISA; also called hIL-11; hIL11
T1 sequence: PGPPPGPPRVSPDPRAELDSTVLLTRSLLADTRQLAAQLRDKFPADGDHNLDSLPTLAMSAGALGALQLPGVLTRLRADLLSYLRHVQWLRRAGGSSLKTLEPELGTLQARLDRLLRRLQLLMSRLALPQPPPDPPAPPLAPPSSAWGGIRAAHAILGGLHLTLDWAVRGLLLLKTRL
Assay: SPR, antibody captured, IL-11 as analyte
MEASURED_QUANTITY: Kd
Write the quantity with the unit trailing the number.

Ask: Kd lookup needed for TPP-29397 (antibody, human IgG1, V domains shown) VH: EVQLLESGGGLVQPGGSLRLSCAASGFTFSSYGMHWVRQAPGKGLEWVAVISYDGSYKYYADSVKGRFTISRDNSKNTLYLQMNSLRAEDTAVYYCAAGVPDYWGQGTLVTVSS VL: QSVLTQPPSASGTPGQRVTISCSGSSSNIWSGYDVHWYQQLPGTAPKLLIYSNEERPSGVPDRFSGSKSGTSASLAISGLRSEDEADYYCAAWDSSLYGPVFGGGTKLTVL , thanks.
Reply: 0.35 nM

Ask: Please give the result for TPP-29389 (antibody, human IgG1, V domains shown) VH: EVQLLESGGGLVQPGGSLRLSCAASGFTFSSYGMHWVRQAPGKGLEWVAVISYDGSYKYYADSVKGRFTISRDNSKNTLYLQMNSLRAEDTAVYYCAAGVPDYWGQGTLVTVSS VL: QSVLTQPPSASGTPGQRVTISCSGSSSNIGSYYDVHWYQQLPGTAPKLLIYSNEERPSGVPDRFSGSKSGTSASLAISGLRSEDEADYYCAAWDPSLYGPVFGGGTKLTVL too.
Reply: 0.23 nM

Ask: Please give the result for TPP-29392 (antibody, human IgG1, V domains shown) VH: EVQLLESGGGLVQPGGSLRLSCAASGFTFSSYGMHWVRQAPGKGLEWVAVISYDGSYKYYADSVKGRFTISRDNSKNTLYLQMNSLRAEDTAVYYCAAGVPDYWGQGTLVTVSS VL: QSVLTQPPSASGTPGQRVTISCSGSSSNIWSDYDVHWYQQLPGTAPKLLIYSNEERPSGVPDRFSGSKSGTSASLAISGLRSEDEADYYCAAWDSSLSGPVFGGGTKLTVL too.
Reply: 0.92 nM

Data provenance is patent US20240317847A1.
